- Test system: Saccharomyces cerevisiae
- assayProcedure: transcriptional activation domain activity (GFP:mCherry ratio, weighted mean of sorted bins, harmonized to initial dataset scale) (arbitrary fluorescence ratio units); higher = stronger transcriptional activation
- reportedConditions: beta-estradiol 1 µM; induction time 4 h
Entries are sorted into classes by transcriptional activation domain activity as follows: group 1: < 50000; group 2: ≥ 50000 and < 60000; group 3: ≥ 60000

Solved entries:
{"monomerSequence": "MLGPFSVFLSVFPPFAAGFGTALFPFFFSCCLCFCCWCTSFALFAPLTALFAV", "group": "group 2"}
{"monomerSequence": "PKCSSLRKPTNTLQGTNHAYHEHILNTDMDLKILEDLCNISSLYEVPFGKHIN", "group": "group 3"}
{"monomerSequence": "TRDDEEGGEEEEEEEEEEEEDEEDEDPESLPHIHKALEIHYQIHLSPTYSVPV", "group": "group 2"}
{"monomerSequence": "FGFVFFVASLENGHYKFQFTNFAWTHMALYLIVCQAHFVMNNIFEGMIWFFLP", "group": "group 3"}
{"monomerSequence": "PLIDLFGKDHLCLVKAAYHKIFGIVFESGTDLTDHVRRMLCTRSDFARTILPL", "group": "group 3"}
{"monomerSequence": "WWLLGDSYESEIISLVILFQFWNNGALVNFGSAFRQAWWRNYLLVFVWSCFFI", "group": "group 1"}
{"monomerSequence": "KTQDESKPADGASTEQPAKKKRKRKQKRAQDGEGGEGAAAVGGGGGGEETQKA", "group": "group 1"}
{"monomerSequence": "MRLCFAKYHFPPPSTFFPPLLFSLLCPVAFYANYCPFFFFFLFLFPYSFFVQE", "group": "group 3"}

Input: State the band of SSLSSSSFIKSHPGPDPFQQLSSAEHPNNHSSDDEHSGSQPLPLDSITIGIPP
Output: group 2

====

- System: Saccharomyces cerevisiae
- assayProcedure: transcriptional activation domain activity (GFP:mCherry ratio, weighted mean of sorted bins, harmonized to initial dataset scale) (arbitrary fluorescence ratio units); higher = stronger transcriptional activation
- reportedConditions: beta-estradiol 1 µM; induction time 4 h
metric: transcriptional activation domain activity
One number for each entry.

{"monomerSequence": "PPSLVDLVANTIAACHSETTPETVSLQIVKALLSLVLSSTILVHHSSLLKAVR", "reading": 50700}
{"monomerSequence": "ARLRALEIIRAGHEGGYDGFFWGAWIPGLFHGKMTDIIALLLTHWGNVRNPAS", "reading": 65700}
{"monomerSequence": "ILLVALPLFSFGFESFLPFGKDSGILYYFWLYSTRVFCPCMGFLWAIFALLPF", "reading": 59700}

Look at each sequence and report its transcriptional activation domain activity.
1. MGQVGVFALHKVLYGIIPLFEIQTCSFYPLLVSLWHIFYLLVYIVMFMRLIIL
2. FFGVCLGFYGFSFRSNFEPGAIIHDYILFMTPSFASLCARFHIQWLLFILFIH
3. MVLLCAYERGLGLDIGVSGFVSFFSFLTLFFFFPIYLFFSLLYFLCVCLLCCA
4. MTCCLNLFCLLLINLIFFVCACCLLVFSLLAIQNKLPECILLPINIFKMLTIL
5. RVRAAERAGQQAGREGRRGRQRGEHARRGGRAAHERAAQAHHRAPVPVPVRVP
6. LRHICLLLSIWSKHLIERLKKLPANVRLTIVQALVRFVIPKLHIYGHKLLCQL

Output:
1. 72300
2. 46800
3. 49700
4. 52900
5. 62200
6. 44500

Below are some sequences; for each one, tell me its transcriptional activation domain activity.
1. AAQKFVSDIAADAYQYARVRTNATTGGRSKAEKNAQGGSSAAAKDKSKTVLTL
2. AARVSDYSMAQFRFLLKFLLVHGRWNYVRICKYTVGTFWKELLFYLTQALFQR

Output:
1: 29700; 2: 48200

Where do these numbers come from? They come from the supplement of paper PMC12636428.
